TEST_TARGET: T1, β1γ1 complex of the recombinant mouse laminin coiled-coil fragments (mouse, UniProt P02469 1561-1786; P02468 1362-1607)
T1 construct: two residues (GlySer) left from the protease recognition site after thrombin cleavage; laminin β1 chain, mouse, residues 1561-1786 of the native chain; as m6; laminin γ1 chain, mouse, residues 1362-1607 of the native chain; as m9; heterodimer by AUC; in the αβγ tests all three chains were mixed, the βγ complex was not isolated beforehand; source: mixture of the purified E. coli fragments; not …
T1 sequence 1: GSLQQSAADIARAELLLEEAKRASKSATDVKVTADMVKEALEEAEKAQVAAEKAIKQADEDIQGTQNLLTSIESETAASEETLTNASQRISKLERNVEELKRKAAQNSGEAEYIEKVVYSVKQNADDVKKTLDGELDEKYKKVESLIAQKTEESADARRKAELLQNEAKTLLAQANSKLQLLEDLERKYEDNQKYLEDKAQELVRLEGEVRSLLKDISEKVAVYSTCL
T1 sequence 2: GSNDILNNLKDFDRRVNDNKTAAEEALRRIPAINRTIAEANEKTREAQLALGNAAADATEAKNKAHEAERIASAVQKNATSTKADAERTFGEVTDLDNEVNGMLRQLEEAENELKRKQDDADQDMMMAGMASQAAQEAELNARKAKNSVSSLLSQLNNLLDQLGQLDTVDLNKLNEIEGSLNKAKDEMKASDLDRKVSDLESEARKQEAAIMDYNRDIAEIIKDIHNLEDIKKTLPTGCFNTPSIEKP
EXPERIMENT_DESCRIPTION: native gel or EMSA; mixtures of one α, one β and one γ chain fragment; 10% non-denaturing PAGE (acid gels for basic complexes); mixtures reduced, heated to 70 °C for 5 min and cooled; run overnight at 50 V, room temperature, no cooling; Coomassie; bands confirmed by in-gel trypsin digestion and mass spectrometry
PARTICULARS: both partners purified

BINDER	binding result
recombinant mouse laminin α2 chain C-terminal coiled-coil fragment (1924–2145) (domain or fragment, two residues (GlySer) left from the protease recognition site after thrombin cleavage; laminin α2 chain, mouse, C-terminal coiled-coil fragment, residues 1924-2145 of the native chain (222 residues); source: E. coli JM109(DE3), purified (Ni2+-Sepharose, denaturing, 8 M urea), 6xHis tag removed by thrombin; not shown: 6xHis, N-terminal, cleaved; pPEP-T leader (short C-terminal fragment of the …)) GSYSNIKDYIDEAEKVAREAKELAQGATKLATSPQGLLKEDAKGSLQKSFRILNEAKKLANDVKGNHNDLNDLKTRLETADLRNSGLLGALNDTMDKLSAITNDTAAKLQAVKEKAREANDTAKAVLAQVKDLHQNLDGLKQNYNKLADSVAKTNAVVKDPSKNKIIADAGTSVRNLEQEADRLIDKLKPIKELEDNLKKNISEIKELINQARKQANSIKVSVS	binds
recombinant mouse laminin α4 chain C-terminal coiled-coil fragment (616–842) (domain or fragment, two residues (GlySer) left from the protease recognition site after thrombin cleavage; laminin α4 chain, mouse, C-terminal coiled-coil fragment, residues 616-842 of the native chain (227 residues); source: E. coli JM109(DE3), purified (Ni2+-Sepharose, denaturing, 8 M urea), 6xHis tag removed by thrombin; not shown: 6xHis, N-terminal, cleaved; pPEP-T leader (short C-terminal fragment of the …)) GSASNVYENIANYVSEANETAELALNITDRIYDAVSGIDTQIIYHKDESDNLLNQARELQAKADSSNDEAVADTSRRVGGALWRKGALRDRLNDAVKQLQAAERGDAHQRLGQSKLFIEEANKTTAAVQQVTTPMANNLSNWSQNLQTFDSSAYNTAVDSARDAVRNLTEVVPQLLDQLRTVEQKRPASNISASIQRIRELIAQTRSVASKIQVSMMFDGQSAVEVHPK	binds
recombinant mouse laminin α5 chain C-terminal coiled-coil fragment (2525–2748) (domain or fragment, two residues (GlySer) left from the protease recognition site after thrombin cleavage; laminin α5 chain, mouse, C-terminal coiled-coil fragment, residues 2525-2748 of the native chain (224 residues); source: E. coli JM109(DE3), purified (Ni2+-Sepharose, denaturing, 8 M urea), 6xHis tag removed by thrombin; not shown: 6xHis, N-terminal, cleaved) GSNAYSSILQAVQAAEDAAGQALRQASRTWEMVVQRGLAAGARQLLANSSALEETILGHQGRLGLAQGRLQAAGIQLHNVWARKNQLAAQIQEAQAMLAMDTSETSEKIAHAKAVAAEALSTATHVQSQLQGMQKNVERWQSQLGGLQGQDLSQVERDASSSVSTLEKTLPQLLAKLSRLENRGVHNASLALSANIGRVRKLIAQARSAASKVKVSMKFNGRSGVR	binds
recombinant mouse laminin α1 chain C-terminal coiled-coil fragment (1911–2125) (domain or fragment, two residues (GlySer) left from the protease recognition site after thrombin cleavage; laminin α1 chain, mouse, C-terminal coiled-coil fragment, residues 1911-2125 of the native chain (215 residues); source: E. coli JM109(DE3), purified (Ni2+-Sepharose, denaturing, 8 M urea), 6xHis tag removed by thrombin; not shown: 6xHis, N-terminal, cleaved; pPEP-T leader (short C-terminal fragment of the …)) GSHVHSNIQTLTEEAEMLAADAHKTANKTDLISESLASRGKAVLQRSSRFLKESVSTRRKQQGITMKLDELKNLTSQFQESMDNIMKQANDSLAMLRESPGGMREKGRKARELAAAANESAVKTLEDVLALSLRVFNTSEDLSRVNATVQETNDLLHNSTMTTLLAGRKMKDMEMQANLLLDRLKPLKTLEENLSRNLSEIKLLISRARKQVASIKV	binds
